Record form. Attribute: Mouse liver microsomes, MLM t½. Fill in for each entry.
measurement.description: Microsomal stability in mouse liver microsomes (MLM)
Format: in vitro ADME
test.context: mouse, microsomes
One number for each entry, in min.

| compound | Mouse liver microsomes, MLM t½, min |
| --- | --- |
| COc1cc(CC[C@@H](C)N2Cc3cccc(F)c3C2)ccc1OCCO | 66 |
| COc1cc2c(cc1OC)CN([C@@H](C)CCc1ccc(Cl)c(Cl)c1)C2 | 43 |
| CC(C)Oc1cc(CCC(C)(C)N2Cc3cc4c(cc3C2)OCO4)ccc1O | 6 |
| COc1cc(CCC(C)(C)N2Cc3cccc(S(C)(=O)=O)c3C2)ccc1O | 52 |
| COc1cc2c(cc1OC)CN(C(C)(C)CCc1ccc(F)cc1)C2 | 46 |

Go through the list and state Mouse liver microsomes, MLM t½ for each entry.
1. C[C@H](CCc1ccc(Cl)c(Cl)c1)N1Cc2ccc(C(F)(F)F)cc2C1
2. COc1cc(CCC(C)(C)N2Cc3cc4c(cc3C2)OCO4)ccc1OCCO
3. C[C@H](CCc1ccc(F)cc1)N1Cc2cc3c(cc2C1)OCO3
4. COc1cc(CCC(C)N2Cc3ccc4ccccc4c3C2)ccc1O.Cl (stereo not drawn)

Reply:
1: 40; 2: 91; 3: 5; 4: 10
